- EXPERIMENTAL DETAILS: Oral bioavailability in rat
- Assay type: ADME, organism-based
- CONDITION DETAILS: in vivo
MEASURED ATTRIBUTE: bioavailability (%)
All answers are understood in %, so give the number only.

// bioavailability lookup, key: O=C(NCC1CCOCC1)c1cnc(Nc2ccc(Cl)cc2Cl)nc1C(F)(F)F [GW842166X] 58

====

- TARGET UNDER TEST: Cannabinoid receptor 2 (Homo sapiens, UniProt P34972)
- Sequence (P34972 whole entry): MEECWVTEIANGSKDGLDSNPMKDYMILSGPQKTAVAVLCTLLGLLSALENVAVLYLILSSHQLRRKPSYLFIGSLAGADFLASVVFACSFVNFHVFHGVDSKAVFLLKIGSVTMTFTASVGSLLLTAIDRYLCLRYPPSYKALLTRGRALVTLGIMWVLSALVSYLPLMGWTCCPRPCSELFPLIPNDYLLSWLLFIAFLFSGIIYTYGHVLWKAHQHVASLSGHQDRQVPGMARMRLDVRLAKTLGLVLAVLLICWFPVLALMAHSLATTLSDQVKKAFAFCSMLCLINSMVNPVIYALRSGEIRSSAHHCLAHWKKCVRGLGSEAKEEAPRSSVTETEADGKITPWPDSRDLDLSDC
- EXPERIMENTAL DETAILS: Agonist activity at human recombinant CB2 receptor expressed in Saccharomyces cerevisiae cells
pEC50: −log10 of the molar value.
Answer Not satisfied if pEC50 is under 7, and Satisfied if it is 7 or more.

SMILES STR	ANSWER LABEL
COc1ccc(CNC(=O)c2cnc(Nc3cccc(Cl)c3)nc2C(F)(F)F)cc1	Not satisfied
COc1cccc(CNC(=O)c2cnc(Nc3cccc(Cl)c3)nc2C(F)(F)F)c1	Not satisfied

Next up:
Has O=C(NCC1CCOCC1)c1cnc(Nc2ccc(Cl)c(Cl)c2)nc1C(F)(F)F a recorded pEC50 greater than or equal to 7? Satisfied

====

- EXPERIMENTAL DETAILS: Drug concentration in blood of rat FCA model of inflammatory pain at 0.3 mg/kg, po after 1hr
- Format: ADME, organism-based
- Design: dose 0.3 mg/kg, route oral
- CONDITION DETAILS: read-out: Activity
MEASURED ATTRIBUTE: concentration at 1 h
Your reply should be a number followed by the unit it is expressed in.

// concentration at 1 h lookup, key: O=C(NCC1CCOCC1)c1cnc(Nc2ccc(Cl)cc2Cl)nc1C(F)(F)F [GW842166X] 370 nM

====

Listed here: compounds with reported pIC50 for UniProtKB P08684.
Sequence (P08684 whole entry): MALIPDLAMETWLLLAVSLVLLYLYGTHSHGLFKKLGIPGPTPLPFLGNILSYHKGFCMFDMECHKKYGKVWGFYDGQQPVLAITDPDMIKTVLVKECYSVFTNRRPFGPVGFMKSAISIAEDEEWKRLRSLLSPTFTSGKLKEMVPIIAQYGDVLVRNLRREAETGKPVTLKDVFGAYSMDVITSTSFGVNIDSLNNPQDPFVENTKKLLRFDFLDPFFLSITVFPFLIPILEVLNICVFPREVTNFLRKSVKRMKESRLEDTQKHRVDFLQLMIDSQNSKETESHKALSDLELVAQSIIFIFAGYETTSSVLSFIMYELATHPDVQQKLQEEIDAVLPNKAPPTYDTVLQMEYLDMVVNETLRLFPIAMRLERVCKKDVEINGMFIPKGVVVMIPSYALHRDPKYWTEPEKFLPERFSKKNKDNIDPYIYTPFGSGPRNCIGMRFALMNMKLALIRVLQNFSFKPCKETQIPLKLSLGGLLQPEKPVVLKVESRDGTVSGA
Schema: pIC50 number; meaning minus log10 of the concentration expressed in molar units.

SMILES STR	MEASURED ATTRIBUTE	REPORTED
O=C(NCC1CCCC1)c1cnc(Nc2cccc(Cl)c2)nc1C(F)(F)F	pIC50	4.19
O=C(NCC1CCC1)c1cnc(Nc2cccc(Cl)c2)nc1C(F)(F)F	pIC50	4.12
O=C(NCC1CCOCC1)c1cnc(Nc2cc(Cl)cc(Cl)c2)nc1C(F)(F)F	pIC50	4.42
O=C(NCC1CCOCC1)c1cnc(Nc2cccc(Cl)c2)nc1C(F)(F)F	pIC50	4.29
O=C(NCc1ccc(F)cc1)c1cnc(Nc2cccc(Cl)c2)nc1C(F)(F)F	pIC50	5.30

Notebook entry, UniProtKB P08684 assay: pIC50 of O=C(NCC1CCCCC1)c1cnc(Nc2cccc(Cl)c2)nc1C(F)(F)F = ? 4.09

Notebook entry, UniProtKB P08684 assay: pIC50 of O=C(NCC1CCOCC1)c1cnc(Nc2cc(Cl)ccc2F)nc1C(F)(F)F = ? 4.17

====

- TARGET UNDER TEST: Cannabinoid receptor 2 (Homo sapiens)
- EXPERIMENTAL DETAILS: Efficacy at human recombinant CB2 receptor expressed in Saccharomyces cerevisiae cells relative to HU210
- Format: cell-based
MEASURED ATTRIBUTE: Efficacy (%)
All answers are understood in %, so give the number only.

Would you please look over these solved cases?
SMILES STR	Efficacy [%]
O=C(NCc1ccccc1)c1cnc(Nc2cccc(Br)c2)nc1C(F)(F)F	81
O=C(NCC1CCOCC1)c1cnc(Nc2ccc(F)cc2Cl)nc1C(F)(F)F	85
COc1cccc(CNC(=O)c2cnc(Nc3cccc(Cl)c3)nc2C(F)(F)F)c1	20
O=C(NCC1CCOCC1)c1cnc(Nc2cccc(Cl)c2Cl)nc1C(F)(F)F	90
N#Cc1ccc(CNC(=O)c2cnc(Nc3cccc(Cl)c3)nc2C(F)(F)F)cc1	69
COc1ccc(Nc2ncc(C(=O)NCc3ccccc3)c(C(F)(F)F)n2)cc1	32

Notebook entry, Cannabinoid receptor 2 (Homo sapiens) assay: Efficacy of COc1cccc(Nc2ncc(C(=O)NCc3ccccc3)c(C(F)(F)F)n2)c1 = ? 76

Notebook entry, Cannabinoid receptor 2 (Homo sapiens) assay: Efficacy of O=C(OCc1ccco1)c1cnc(N2CCOCC2)nc1C(F)(F)F = ? 55

Notebook entry, Cannabinoid receptor 2 (Homo sapiens) assay: Efficacy of O=C(NCC1CCC1)c1cnc(Nc2cccc(Cl)c2)nc1C(F)(F)F = ? 82

Notebook entry, Cannabinoid receptor 2 (Homo sapiens) assay: Efficacy of O=C(NCc1ccccc1)c1cnc(Nc2ccccc2)nc1C(F)(F)F = ? 45
